Below, each entry is listed with its recorded CC50 at 4 days.
# Experiment Notes: Compound cytotoxicity, XTT-based colorimetric assay
# Format: cell-based
# Measurement Conditions: human; uninfected MT2 cells, day 4, XTT; read-out: CC50

Consider the reported CC50 at 4 days for these compounds:
Compound: CS(=O)(=O)Nc1nn(CCN2CCC(F)CC2)c2c(-n3c([C@H](Cc4cc(F)cc(F)c4)NC(=O)Cn4nc(C5CC5)c5c4C[C@@H]4C[C@H]54)nc4nc(C5CCC(F)(F)CC5)cc(C(F)F)c4c3=O)ccc(Cl)c12 (atropisomer, axis not shown; (P))
Result: > 0.02 µM

Compound: Cc1cc(C2CCC(F)(F)CC2)nc2nc([C@H](Cc3cc(F)cc(F)c3)NC(=O)Cn3nc(C4CC4)c4c3C[C@@H]3C[C@H]43)n(-c3ccc(Cl)c4c(NS(C)(=O)=O)nn(CCN5C[C@@H](F)[C@@H](F)C5)c34)c(=O)c12 (atropisomer, axis not shown; (P))
Result: > 0.05 µM

Compound: Cc1cc(C2CCC(F)(F)CC2)nc2nc([C@H](Cc3cc(F)cc(F)c3)NC(=O)Cn3nc(C4CC4)c4c3C[C@@H]3C[C@H]43)n(-c3ccc(Cl)c4c(NS(C)(=O)=O)nn(CCN5CCCC(F)(F)CC5)c34)c(=O)c12 (atropisomer, axis not shown; (P))
Result: > 0.05 µM

# evaluate next
Inquiry: Query: CC50 at 4 days; subject: COCCCn1nc(NS(C)(=O)=O)c2c(Cl)ccc(-n3c([C@H](Cc4cc(F)cc(F)c4)NC(=O)Cn4nc(C(F)F)c5c4C(F)(F)[C@@H]4C[C@H]54)nc4nc(C5CCC(F)(F)CC5)cc(NCCNC(C)=O)c4c3=O)c21 (atropisomer, axis not shown; (P))
Reply text: > 0.02 µM
